Target: human CTPS1 (Homo sapiens, UniProt P17812)
Sequence (P17812 1-591): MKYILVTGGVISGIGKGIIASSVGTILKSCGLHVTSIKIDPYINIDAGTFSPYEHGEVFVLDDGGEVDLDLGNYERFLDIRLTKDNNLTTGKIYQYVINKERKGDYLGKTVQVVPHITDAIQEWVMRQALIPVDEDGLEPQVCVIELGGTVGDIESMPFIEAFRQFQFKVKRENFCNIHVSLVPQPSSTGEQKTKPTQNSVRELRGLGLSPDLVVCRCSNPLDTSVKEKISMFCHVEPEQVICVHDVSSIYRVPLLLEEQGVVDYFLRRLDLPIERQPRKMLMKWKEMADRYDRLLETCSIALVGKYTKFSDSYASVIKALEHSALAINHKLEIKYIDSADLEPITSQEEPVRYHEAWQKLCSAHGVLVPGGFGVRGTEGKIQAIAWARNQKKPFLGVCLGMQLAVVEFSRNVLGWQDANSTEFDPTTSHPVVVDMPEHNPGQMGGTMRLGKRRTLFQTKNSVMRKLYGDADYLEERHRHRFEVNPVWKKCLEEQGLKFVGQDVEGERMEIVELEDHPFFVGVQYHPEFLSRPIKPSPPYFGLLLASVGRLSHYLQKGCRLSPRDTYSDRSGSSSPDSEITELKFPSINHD
Assay: ADP-Glo assay, human CTPS1 enzyme inhibition
Type: biochemical
Conditions: wild-type human CTPS1, 25 nM enzyme; ADP-Glo; read-out: ADP-Glo_WT_hCTPS1—25 nM_IC50 (IC50)
Readout kind: IC50

[
  {
    "Compound": "CCOc1cncc(-c2cnc(C(=O)N[C@@H](c3cc(NS(=O)(=O)C4CC4)ccn3)C(C)(C)OC)s2)n1",
    "Readout kind": "IC50",
    "Measurement": "5 to 25 nM"
  },
  {
    "Compound": "C[C@@H](CO)[C@H](NC(=O)c1ncc(-c2cnn3ccc(Cl)cc23)s1)c1cc(NS(=O)(=O)C2CC2)ccn1",
    "Readout kind": "IC50",
    "Measurement": "5 to 25 nM"
  },
  {
    "Compound": "O=C(N[C@H](c1cc(NS(=O)(=O)C2CC2)ccn1)C1CCOCC1)c1ncc(-c2cnn3ccc(Cl)cc23)s1",
    "Readout kind": "IC50",
    "Measurement": "25 to 50 nM"
  },
  {
    "Compound": "CCOc1cncc(-c2cnc(C(=O)N[C@H](c3cc(NS(=O)(=O)C4CC4)ccn3)[C@H](C)N3C[C@H]4C[C@@H]3CO4)s2)n1",
    "Readout kind": "IC50",
    "Measurement": "50 to 100 nM"
  },
  {
    "Compound": "CCOc1cncc(-c2cnc(C(=O)N[C@H](CN3C[C@H]4CC[C@@H]3C4)c3cccc(NS(=O)(=O)C(F)F)c3)s2)n1",
    "Readout kind": "IC50",
    "Measurement": "50 to 100 nM"
  },
  {
    "Compound": "O=C(NC(CN1C[C@H]2C[C@@H]1CO2)c1cc(NS(=O)(=O)C2CC2)ccn1)c1ncc(-c2cnn3ccc(Cl)cc23)s1 (some centres unmarked)",
    "Readout kind": "IC50",
    "Measurement": "5 to 25 nM"
  },
  {
    "Compound": "CCOc1cncc(-c2cnc(C(=O)N[C@@H](CN3CCOC[C@@H]3C)c3cc(NS(=O)(=O)C4CC4)ccn3)s2)n1 (single isomer, unassigned)",
    "Readout kind": "IC50",
    "Measurement": "5 to 25 nM"
  },
  {
    "Compound": "CCOc1cncc(-c2cnc(C(=O)N[C@@H](c3cccc(NS(=O)(=O)C(F)F)c3)[C@@H]3CCOC3)s2)n1",
    "Readout kind": "IC50",
    "Measurement": "≤ 5 nM"
  },
  {
    "Compound": "CCOc1cncc(-c2cnc(C(=O)N[C@@H](CN3C[C@@H]4CC[C@H]3CO4)c3cc(NS(=O)(=O)C4CC4)ccn3)s2)n1",
    "Readout kind": "IC50",
    "Measurement": "≤ 5 nM"
  },
  {
    "Compound": "CCOc1cncc(-c2cnc(C(=O)N[C@H](c3cc(NS(=O)(=O)C4CC4)ccn3)[C@H]3CCCN3C)s2)n1",
    "Readout kind": "IC50",
    "Measurement": "25 to 50 nM"
  },
  {
    "Compound": "CCOc1cncc(-c2cnc(C(=O)N[C@@H](c3cccc(NS(=O)(=O)C(F)F)c3)[C@H](C)O)s2)n1",
    "Readout kind": "IC50",
    "Measurement": "5 to 25 nM"
  },
  {
    "Compound": "O=C(N[C@@H](c1cc(NS(=O)(=O)C2CC2)ccn1)[C@H]1COCCO1)c1ncc(-c2cnn3ccc(Cl)cc23)s1",
    "Readout kind": "IC50",
    "Measurement": "5 to 25 nM"
  },
  {
    "Compound": "CCOc1cncc(-c2cnc(C(=O)N(C)[C@@H](CN3CCOCC3)c3cc(NS(=O)(=O)C4CC4)ccn3)s2)n1",
    "Readout kind": "IC50",
    "Measurement": "50 to 100 nM"
  },
  {
    "Compound": "C[C@@H](CN1CCCCC1)[C@@H](NC(=O)c1ncc(-c2cnn3ccc(Cl)cc23)s1)c1cc(NS(=O)(=O)C2CC2)ccn1",
    "Readout kind": "IC50",
    "Measurement": "50 to 100 nM"
  }
]

====

Target: human CTPS1 (Homo sapiens, UniProt P17812)
Sequence (P17812 1-591): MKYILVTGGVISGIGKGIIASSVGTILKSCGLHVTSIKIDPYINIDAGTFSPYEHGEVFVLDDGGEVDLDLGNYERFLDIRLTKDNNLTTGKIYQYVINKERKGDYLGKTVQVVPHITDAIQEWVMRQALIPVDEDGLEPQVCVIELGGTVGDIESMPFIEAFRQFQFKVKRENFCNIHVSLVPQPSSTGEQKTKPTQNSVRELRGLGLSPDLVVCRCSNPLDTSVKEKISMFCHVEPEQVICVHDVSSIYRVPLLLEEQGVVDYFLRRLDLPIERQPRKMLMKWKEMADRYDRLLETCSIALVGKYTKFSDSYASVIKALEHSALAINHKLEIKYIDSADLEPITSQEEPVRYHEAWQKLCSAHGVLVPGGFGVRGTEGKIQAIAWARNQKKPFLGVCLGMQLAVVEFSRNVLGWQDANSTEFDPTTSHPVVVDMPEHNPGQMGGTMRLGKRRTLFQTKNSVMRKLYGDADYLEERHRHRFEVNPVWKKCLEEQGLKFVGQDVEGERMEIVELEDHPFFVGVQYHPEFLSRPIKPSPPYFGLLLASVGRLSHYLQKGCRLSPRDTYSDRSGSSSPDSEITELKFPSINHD
Assay: ADP-Glo assay, human CTPS1 enzyme inhibition
Assay type: biochemical
Settings: wild-type human CTPS1, 25 nM enzyme; ADP-Glo; read-out: ADP-Glo_WT_hCTPS1—25 nM_IC50 (IC50)

[
  {
    "Compound": "CCOc1cncc(-c2cnc(C(=O)N[C@H](C[C@H]3CCCCN3C(C)C)c3cc(NS(=O)(=O)C4CC4)ccn3)s2)n1 (single isomer, unassigned) [I-27]",
    "IC50": "5 to 25 nM"
  },
  {
    "Compound": "CCOc1cncc(-c2cnc(C(=O)N[C@H](COC)c3nccc(NS(=O)(=O)C4CC4)c3F)s2)n1 (single isomer, unassigned) [I-12]",
    "IC50": "5 to 25 nM"
  },
  {
    "Compound": "CCOc1cncc(-c2cnc(C(=O)N[C@H](CC3COCCN3C)c3cccc(NS(=O)(=O)C(F)F)c3)s2)n1 (stereo partly drawn) [I-193]",
    "IC50": "50 to 100 nM"
  },
  {
    "Compound": "CCOc1cncc(-c2cnc(C(=O)N[C@H](Cn3nccn3)c3cccc(NS(=O)(=O)C(F)F)c3)s2)n1 [I-216]",
    "IC50": "≤ 5 nM"
  },
  {
    "Compound": "CCOc1cncc(-c2ccc(C(=O)N[C@H](CCN3CCCCC3)c3cc(NS(=O)(=O)C4CC4)ccn3)c(F)c2F)n1 (single isomer, unassigned) [I-7]",
    "IC50": "5 to 25 nM"
  },
  {
    "Compound": "CCOc1cncc(-c2cnc(C(=O)N[C@@H](Cn3ccccc3=O)c3cc(NS(=O)(=O)C4CC4)ccn3)s2)n1 [I-140]",
    "IC50": "5 to 25 nM"
  }
]

====

Molecular target: human CTPS1 (Homo sapiens, UniProt P17812)
Sequence (P17812 1-591): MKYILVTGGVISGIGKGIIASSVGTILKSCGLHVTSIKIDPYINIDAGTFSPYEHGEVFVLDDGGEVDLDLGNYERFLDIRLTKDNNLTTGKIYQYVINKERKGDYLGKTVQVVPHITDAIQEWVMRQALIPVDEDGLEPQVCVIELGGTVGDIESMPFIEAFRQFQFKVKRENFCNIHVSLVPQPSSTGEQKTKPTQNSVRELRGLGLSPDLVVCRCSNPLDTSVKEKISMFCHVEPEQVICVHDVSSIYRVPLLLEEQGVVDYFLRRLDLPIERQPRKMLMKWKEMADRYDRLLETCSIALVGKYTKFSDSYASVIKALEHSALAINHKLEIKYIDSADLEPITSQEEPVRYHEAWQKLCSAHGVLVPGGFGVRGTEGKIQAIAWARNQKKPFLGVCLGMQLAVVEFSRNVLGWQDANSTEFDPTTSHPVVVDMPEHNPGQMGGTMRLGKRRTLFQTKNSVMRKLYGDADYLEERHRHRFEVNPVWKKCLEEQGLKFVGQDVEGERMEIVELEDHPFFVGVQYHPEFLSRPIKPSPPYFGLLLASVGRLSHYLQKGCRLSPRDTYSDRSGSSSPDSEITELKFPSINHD
Assay: ADP-Glo assay, human CTPS1 enzyme inhibition
Format: biochemical
Settings: wild-type human CTPS1, 25 nM enzyme; ADP-Glo; read-out: ADP-Glo_WT_hCTPS1—25 nM_IC50 (IC50)
Description: The enzyme inhibitory activities of the compounds of the invention against the target of interest were determined using the ADP-Glo™ assay (Promega). […] Purified human CTPS1 protein was prepared in 1× assay buffer to the final working protein concentration required for the reaction. […] This mixture was incubated for an appropriate amount of time within the determined linear phase of the reaction at 25 degrees C. under sealed plate conditions with constant agitation at 500 revolutions per minute (rpm). […]
Parameter IC50: see the listing below.

[
  {
    "Compound": "CCOc1cncc(-c2cnc(C(=O)N[C@@H](c3cc(NS(=O)(=O)C4CC4)ccn3)[C@H]3CCCO3)s2)n1 [I-62]",
    "IC50": "0.005 to 0.025 µM"
  },
  {
    "Compound": "CCOc1cncc(-c2cnc(C(=O)N[C@@H](CO)c3cc(NS(=O)(=O)C4CC4)ccn3)s2)n1 [I-262]",
    "IC50": "0.025 to 0.05 µM"
  },
  {
    "Compound": "CCOc1cncc(-c2ccc(C(=O)N[C@@H](COC)c3cc(NS(=O)(=O)C4CC4)ccn3)c(F)c2)n1 [I-282]",
    "IC50": "0.025 to 0.05 µM"
  },
  {
    "Compound": "CCOc1cncc(-c2cnc(C(=O)N(C)[C@@H](c3cc(NS(=O)(=O)C4CC4)ccn3)[C@@H]3CCOC3)s2)n1 [I-66]",
    "IC50": "0.025 to 0.05 µM"
  },
  {
    "Compound": "CCOc1cncc(-c2cnc(C(=O)N[C@H](c3cc(NS(=O)(=O)C4CC4)ccn3)[C@@H]3CCN(C4CCCC4)C3)s2)n1 [I-94]",
    "IC50": "> 0.1 µM"
  },
  {
    "Compound": "CCOc1cncc(-c2cnc(C(=O)N[C@H](CN3C[C@H]4C[C@@H](C3)C4)c3cc(NS(=O)(=O)C4CC4)ccn3)s2)n1 [I-152]",
    "IC50": "0.005 to 0.025 µM"
  },
  {
    "Compound": "CCOc1cncc(-c2cnc(C(=O)N[C@H](c3cc(NS(=O)(=O)C4CC4)ncn3)[C@@H]3CCOC3)s2)n1 [I-256]",
    "IC50": "0.005 to 0.025 µM"
  },
  {
    "Compound": "CCOc1cncc(-c2cnc(C(=O)N[C@@H](c3cc(NS(=O)(=O)C4CC4)ccn3)[C@@H](C)N3C[C@H]4C[C@@H]3CO4)s2)n1 [I-169]",
    "IC50": "0.025 to 0.05 µM"
  },
  {
    "Compound": "CCOc1cncc(-c2cnc(C(=O)N[C@H](C[C@H]3COCCN3C)c3cc(NS(=O)(=O)C4CC4)ccn3)s2)n1 [I-104]",
    "IC50": "≤ 0.005 µM"
  },
  {
    "Compound": "CCOc1cncc(-c2cnc(C(=O)N[C@@H](CCN3CCC(F)CC3)c3cc(NS(=O)(=O)C4CC4)ccn3)s2)n1 (single isomer, unassigned) [I-15]",
    "IC50": "0.05 to 0.1 µM"
  },
  {
    "Compound": "COC[C@H](NC(=O)c1ncc(-c2cnn3ccc(Cl)cc23)s1)c1cc(NS(=O)(=O)C2CC2)ccn1 (single isomer, unassigned) [I-3]",
    "IC50": "0.005 to 0.025 µM"
  },
  {
    "Compound": "CCOc1cncc(-c2cnc(C(=O)N[C@@H](c3cccc(NS(=O)(=O)C(F)F)c3)[C@H]3CCOC3)s2)n1 [I-190]",
    "IC50": "0.005 to 0.025 µM"
  },
  {
    "Compound": "CCOc1cncc(-c2cnc(C(=O)N[C@H](c3cccc(NS(=O)(=O)C(F)F)c3)[C@H]3COCCO3)s2)n1 [I-198]",
    "IC50": "0.005 to 0.025 µM"
  },
  {
    "Compound": "O=C(N[C@H](c1ccnc(NS(=O)(=O)C2CC2)n1)[C@H]1CCOC1)c1ncc(-c2cnn3ccc(Cl)cc23)s1 [I-260]",
    "IC50": "0.005 to 0.025 µM"
  }
]
